Record form. Attribute: pKd. Fill in for each entry.
# Measurement Notes: Dissociation constant by non-linear regression analysis
# Format: physicochemical
Numbers only, as −log10 of the molar value.

{"Smiles Str": "CC(=O)N[C@@H]1[C@H](O[C@H]2C[C@H](C(=O)OC(C)(C)C)[C@@H](C(=O)OC(C)(C)C)C[C@H]2O[C@H](C)C(=O)O)O[C@@H](CO)[C@H](O)[C@@H]1O[C@@H]1O[C@@H](CO)[C@H](O)[C@H](O)[C@@H]1O", "pKd": 3.72}
{"Smiles Str": "CC(=O)N[C@@H]1[C@H](O[C@H]2C[C@H](C(=O)OC(C)(C)C)[C@@H](C(=O)OC(C)(C)C)C[C@H]2O[C@H](Cc2ccccc2)C(=O)O)O[C@@H](CO)[C@H](O)[C@@H]1O[C@@H]1O[C@@H](CO)[C@H](O)[C@H](O)[C@@H]1O", "pKd": 5.00}

// next item, pKd requested
Short answer for `CC(=O)N[C@@H]1[C@H](O[C@H]2C[C@H](C(=O)OC(C)(C)C)[C@@H](C(=O)OC(C)(C)C)C[C@H]2O[C@H](CC2CCCCC2)C(=O)O)O[C@@H](CO)[C@H](O)[C@@H]1O[C@@H]1O[C@@H](CO)[C@H](O)[C@H](O)[C@@H]1O` : pKd was 4.35
